Listed here are compounds together with their documented Activity.
test system: MCF7; assay: Antiproliferative activity against human MCF7 cells at 100 uM after 72 hrs by WST1 assay; assay type: functional
PROPERTY NAME: Activity

# COMPOUND, RESULT
records = [
    ("C=CCN1COc2cc3c(cc2C1)c1ccccc1n3C", "1.5%"),
    ("Cc1ccc(CN2COc3cc4c(cc3C2)c2ccccc2n4C)cc1", "27.5%"),
    ("CC(C)=CCn1c2ccccc2c2c3c(ccc21)CN(Cc1ccccc1)CO3", "27.5%"),
    ("C=CCn1c2ccccc2c2c3c(ccc21)CN(c1ccccc1)CO3", "83%"),
    ("C=CCN1COc2c(ccc3c2c2ccccc2n3C)C1", "35%"),
    ("Cn1c2ccccc2c2cc3c(cc21)OCN(Cc1nc2ccccc2s1)C3", "79%"),
    ("Cn1c2ccccc2c2c3c(ccc21)CN(Cc1ccccc1)CO3", "87%"),
    ("CC(c1ccccc1)N1COc2ccc3c4ccccc4n(C)c3c2C1 (stereo not given)", "0%"),
    ("C=CCN1COc2c(ccc3c2c2ccccc2n3CC=C)C1", "43%"),
    ("Cc1ccc(CN2COc3c(ccc4c3c3ccccc3n4C)C2)cc1", "42.5%"),
    ("CC(C)=CCn1c2ccccc2c2c3c(ccc21)CN(Cc1ccc(C)cc1)CO3", "41.5%"),
    ("C=CCn1c2ccccc2c2c3c(ccc21)CN(Cc1ccccc1)CO3", "55.5%"),
    ("Cn1c2ccccc2c2ccc3c(c21)CN(Cc1ccccc1)CO3", "60.5%"),
    ("CCn1c2ccccc2c2c(O)c(CN(Cc3ccccn3)Cc3ccc4c(c3O)c3ccccc3n4CC)ccc21", "89%"),
    ("Cn1c2ccccc2c2c(O)c(CN(Cc3ccccn3)Cc3ccc4c(c3O)c3ccccc3n4C)ccc21", "98.5%"),
    ("CCn1c2ccccc2c2c3c(ccc21)CN(Cc1ccc(C)cc1)CO3", "85.5%"),
    ("CCn1c2ccccc2c2c3c(ccc21)CN(C(C)c1ccccc1)CO3 (stereo not given)", "86.5%"),
    ("CCn1c2ccccc2c2c3c(ccc21)CN(Cc1ccccn1)CO3", "52%"),
    ("CC(C)=CCn1c2ccccc2c2c3c(ccc21)CN(c1ccccc1)CO3", "49%"),
    ("C=CCn1c2ccccc2c2c3c(ccc21)CN(Cc1ccccn1)CO3", "47.5%"),
]

====

system: Jurkat; assay: Antiproliferative activity against human Jurkat cells at 100 uM after 72 hrs by WST1 assay; type: functional

# MOLECULE, Activity
records = [
    ("Cn1c2ccccc2c2cc3c(cc21)OCN(Cc1ccccn1)C3", "3.5%"),
    ("CCn1c2ccccc2c2c(O)c(CN(Cc3ccccn3)Cc3ccc4c(c3O)c3ccccc3n4CC)ccc21", "97.5%"),
    ("CC(c1ccccc1)N1COc2ccc3c4ccccc4n(C)c3c2C1 (stereo unspecified)", "0.5%"),
    ("Cn1c2ccccc2c2cc3c(cc21)OCN(Cc1ccccc1)C3", "1%"),
    ("C=CCN1COc2c(ccc3c2c2ccccc2n3CC)C1", "6.5%"),
    ("Cc1ccc(CN2COc3cc4c(cc3C2)c2ccccc2n4C)cc1", "2.5%"),
    ("C=CCN1COc2cc3c(cc2C1)c1ccccc1n3C", "1.5%"),
    ("C=CCn1c2ccccc2c2c3c(ccc21)CN(Cc1ccccc1)CO3", "67%"),
    ("CC(C)=CCn1c2ccccc2c2c3c(ccc21)CN(Cc1ccccc1)CO3", "7.5%"),
    ("C=CCn1c2ccccc2c2c(O)c(CN(Cc3ccccn3)Cc3ccc4c(c3O)c3ccccc3n4CC=C)ccc21", "92%"),
    ("CC(c1ccccc1)N1COc2c(ccc3c2c2ccccc2n3C)C1 (stereo unspecified)", "80.5%"),
]

====

tested on: Jurkat; experiment: Antiproliferative activity against human Jurkat cells at 100 uM after 72 hrs by WST1 assay; type: functional
Class key for Activity values: low band (below 4%), middle band (4% to below 50%), high band (50% or more)

# COMPOUND, SYSTEM, CAT
data = [
    ("C=CCn1c2ccccc2c2c3c(ccc21)CN(Cc1ccc(C)cc1)CO3", "Jurkat", "low band"),
    ("Cn1c2ccccc2c2ccc3c(c21)CN(Cc1ccccc1)CO3", "Jurkat", "middle band"),
    ("C=CCN1COc2c(ccc3c2c2ccccc2n3CC=C(C)C)C1", "Jurkat", "low band"),
    ("CC(C)=CCn1c2ccccc2c2c(O)c(CN(Cc3ccccn3)Cc3ccc4c(c3O)c3ccccc3n4CC=C(C)C)ccc21", "Jurkat", "high band"),
    ("C=CCn1c2ccccc2c2c3c(ccc21)CN(c1ccccc1)CO3", "Jurkat", "middle band"),
    ("Cn1c2ccccc2c2c3c(ccc21)CN(c1ccccc1)CO3", "Jurkat", "high band"),
    ("C=CCN1COc2c(ccc3c2c2ccccc2n3CC=C)C1", "Jurkat", "low band"),
    ("Cn1c2ccccc2c2cc3c(cc21)OCN(Cc1nc2ccccc2s1)C3", "Jurkat", "middle band"),
    ("CC(c1ccccc1)N1COc2cc3c(cc2C1)c1ccccc1n3C (stereo unspecified)", "Jurkat", "low band"),
    ("CCn1c2ccccc2c2c3c(ccc21)CN(Cc1ccccn1)CO3", "Jurkat", "high band"),
]

====

test system: Jurkat; experiment: Antiproliferative activity against human Jurkat cells at 100 uM after 72 hrs by WST1 assay; assay type: functional
The entries below come with measured Activity values attached.

# MOLECULE SMILES, SYSTEM, Activity (%)
measured = [
    ("CCn1c2ccccc2c2c3c(ccc21)CN(c1ccccc1)CO3", "Jurkat", 55),
    ("C=CCn1c2ccccc2c2c3c(ccc21)CN(Cc1ccccn1)CO3", "Jurkat", 12.5),
    ("Cc1ccc(CN2COc3ccc4c5ccccc5n(C)c4c3C2)cc1", "Jurkat", 1.5),
    ("Cn1c2ccccc2c2cc(CN(Cc3ccccn3)Cc3cc4c5ccccc5n(C)c4cc3O)c(O)cc21", "Jurkat", 8.5),
    ("Cn1c2ccccc2c2c3c(ccc21)CN(Cc1ccccc1)CO3", "Jurkat", 87),
    ("CC(C)=CCn1c2ccccc2c2c3c(ccc21)CN(c1ccccc1)CO3", "Jurkat", 7.5),
    ("Cn1c2ccccc2c2c(O)c(CN(Cc3ccccn3)Cc3ccc4c(c3O)c3ccccc3n4C)ccc21", "Jurkat", 72),
    ("CC(C)=CCn1c2ccccc2c2c3c(ccc21)CN(Cc1ccc(C)cc1)CO3", "Jurkat", 13.5),
    ("C=CCN1COc2c(ccc3c2c2ccccc2n3C)C1", "Jurkat", 8.5),
    ("C=CCN1COc2ccc3c4ccccc4n(C)c3c2C1", "Jurkat", 2),
    ("Cn1c2ccccc2c2ccc3c(c21)CN(Cc1ccccn1)CO3", "Jurkat", 2),
]
